# target-of-assay: D1 (Homo sapiens, UniProt P21728)
# Sequence (P21728 whole entry): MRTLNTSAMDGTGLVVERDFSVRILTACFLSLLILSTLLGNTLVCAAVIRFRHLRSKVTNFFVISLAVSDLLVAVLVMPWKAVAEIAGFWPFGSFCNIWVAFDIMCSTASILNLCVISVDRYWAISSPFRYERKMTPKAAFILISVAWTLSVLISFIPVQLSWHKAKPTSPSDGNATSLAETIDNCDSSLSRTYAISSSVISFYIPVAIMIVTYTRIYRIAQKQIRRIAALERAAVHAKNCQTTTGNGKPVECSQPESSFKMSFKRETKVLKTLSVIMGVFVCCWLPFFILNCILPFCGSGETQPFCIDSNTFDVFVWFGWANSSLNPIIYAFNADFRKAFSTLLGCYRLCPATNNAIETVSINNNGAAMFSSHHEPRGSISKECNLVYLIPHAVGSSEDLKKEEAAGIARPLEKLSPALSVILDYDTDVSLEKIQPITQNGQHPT
# experiment: Radioligand binding for selectivity, D1
# condition-description: read-out: Binding affinity (Inhibition rate % at 10 μM) D1
Kindly supply the reported inhibition at 10 µM values for the records listed here.
Write down the value, and be sure its unit follows.

// worked examples, inhibition at 10 µM included
• CC1(c2ccccc2)C(=O)Nc2ccccc2C1=O (stereo not shown) = 10.2%
• COc1ccc(C2(C)C(=O)Nc3cc(Cl)cc(Cl)c3C2=O)cc1 (stereo not shown) = 15.7%
• CC1(c2ccc(Br)cc2Br)C(=O)Nc2cc(Cl)cc(Cl)c2C1=O (stereo not shown) = 25.8%
• CN1CCN(c2cc(Cl)c3c(c2)NC(=O)C(C)(c2ccc(O)cc2)C3=O)CC1 (stereo not shown) = 20.9%
• CC1(c2ccc([N+](=O)[O-])cc2)C(=O)Nc2cc(Cl)c(Cl)cc2C1=O (stereo not shown) = 12.6%

Need inhibition at 10 µM for each of these molecules.
1. CC1(c2ccc(Cl)cc2)C(=O)Nc2cc(Cl)cc(Cl)c2C1=O (stereo not shown)
2. CC1(c2ccc(I)cc2)C(=O)Nc2cc(Cl)cc(Cl)c2C1=O (stereo not shown)

Response line:
["13.8%", "24.7%"]
